- Measured Target: UniProt O75030
- Sequence (O75030 whole entry): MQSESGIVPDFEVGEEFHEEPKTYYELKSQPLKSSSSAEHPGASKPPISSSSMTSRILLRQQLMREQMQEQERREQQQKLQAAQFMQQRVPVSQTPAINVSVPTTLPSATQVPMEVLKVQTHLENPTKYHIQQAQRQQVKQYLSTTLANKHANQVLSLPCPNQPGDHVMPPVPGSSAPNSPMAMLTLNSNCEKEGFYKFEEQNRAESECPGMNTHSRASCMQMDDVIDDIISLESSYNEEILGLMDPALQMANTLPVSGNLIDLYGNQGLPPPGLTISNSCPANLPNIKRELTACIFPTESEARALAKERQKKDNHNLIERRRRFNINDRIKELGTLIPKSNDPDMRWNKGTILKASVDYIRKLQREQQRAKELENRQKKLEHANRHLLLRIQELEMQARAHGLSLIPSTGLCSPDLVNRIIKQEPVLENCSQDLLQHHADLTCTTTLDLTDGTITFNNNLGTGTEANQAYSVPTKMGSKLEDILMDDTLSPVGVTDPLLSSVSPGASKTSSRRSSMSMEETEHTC
- Assay Summary: reducers of TRPM1 reporter luminescence, concentration series – cell-based, SK-MEL-5, cherry-picked, set 3, MITF inhibitor project, dose response (AID 493073);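 further: SK-MEL-5 melanoma cells with luciferase driven by the MITF target TRPM1 promoter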
- Type: functional
Activity calls are given as the source filed them.
Measured Parameter: AC50

[[record]]
compound = "O=C(Nc1ccccc1N1CCOCC1)c1ccc([N+](=O)[O-])o1"
val = "11.9 µM (active)"

[[record]]
compound = "O=C(Nc1cccc(Cl)c1)Nc1cc(S(=O)(=O)N2CCCCC2)ccc1Cl"
val = "12 µM (active)"

[[record]]
compound = "CC1CCN(CC(CS(=O)(=O)c2ccc([N+](=O)[O-])cc2)N2CCC(C)CC2)CC1 (centres undefined)"
val = "6.62 µM (active)"

[[record]]
compound = "COc1cc(/C=N/NC(N)=O)c(Br)cc1OCC(=O)Nc1ccccc1C"
val = "17.8 µM (active)"

[[record]]
compound = "CCC(=O)N1CCN(c2ccc(NC(=O)c3ccc([N+](=O)[O-])o3)cc2)CC1"
val = "8.68 µM (active)"

[[record]]
compound = "Cc1cccc2sc(N(CCCN(C)C)C(=O)c3nc4ccccc4s3)nc12"
val = "10.9 µM (active)"

[[record]]
compound = "C=C1CCC[C@]2(C)C[C@H]3OC(=O)C(CN4CCCCC4CO)[C@H]3CC12 (some centres undefined)"
val = "11 µM (active)"

[[record]]
compound = "O=C(N/N=C/C=C(\\O)c1ccc([N+](=O)[O-])cc1)c1ccccc1"
val = "9.19 µM (active)"

[[record]]
compound = "O=C1C=CC(=C(c2ccc(O)cc2)c2ccc(O)cc2)C=C1"
val = "9.92 µM (active)"


----------
- Measured Target: Peroxisome proliferator-activated receptor gamma/Nuclear receptor coactivator 3 (Homo sapiens, UniProt P37231)
- Sequence (P37231 whole entry): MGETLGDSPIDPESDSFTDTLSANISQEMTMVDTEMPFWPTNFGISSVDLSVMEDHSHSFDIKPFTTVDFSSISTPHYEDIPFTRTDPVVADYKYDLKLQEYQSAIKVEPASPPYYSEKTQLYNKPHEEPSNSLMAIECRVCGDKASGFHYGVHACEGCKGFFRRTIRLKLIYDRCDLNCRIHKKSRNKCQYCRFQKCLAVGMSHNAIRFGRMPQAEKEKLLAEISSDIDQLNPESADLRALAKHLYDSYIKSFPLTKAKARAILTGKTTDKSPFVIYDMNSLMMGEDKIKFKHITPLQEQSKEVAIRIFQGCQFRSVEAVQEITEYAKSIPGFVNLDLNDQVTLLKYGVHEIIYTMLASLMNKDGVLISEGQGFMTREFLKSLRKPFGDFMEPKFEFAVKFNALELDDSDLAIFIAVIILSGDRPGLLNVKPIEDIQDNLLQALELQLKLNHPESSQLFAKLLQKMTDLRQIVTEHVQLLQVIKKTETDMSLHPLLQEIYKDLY
- Sequence (Q9Y6Q9 whole entry, further chain): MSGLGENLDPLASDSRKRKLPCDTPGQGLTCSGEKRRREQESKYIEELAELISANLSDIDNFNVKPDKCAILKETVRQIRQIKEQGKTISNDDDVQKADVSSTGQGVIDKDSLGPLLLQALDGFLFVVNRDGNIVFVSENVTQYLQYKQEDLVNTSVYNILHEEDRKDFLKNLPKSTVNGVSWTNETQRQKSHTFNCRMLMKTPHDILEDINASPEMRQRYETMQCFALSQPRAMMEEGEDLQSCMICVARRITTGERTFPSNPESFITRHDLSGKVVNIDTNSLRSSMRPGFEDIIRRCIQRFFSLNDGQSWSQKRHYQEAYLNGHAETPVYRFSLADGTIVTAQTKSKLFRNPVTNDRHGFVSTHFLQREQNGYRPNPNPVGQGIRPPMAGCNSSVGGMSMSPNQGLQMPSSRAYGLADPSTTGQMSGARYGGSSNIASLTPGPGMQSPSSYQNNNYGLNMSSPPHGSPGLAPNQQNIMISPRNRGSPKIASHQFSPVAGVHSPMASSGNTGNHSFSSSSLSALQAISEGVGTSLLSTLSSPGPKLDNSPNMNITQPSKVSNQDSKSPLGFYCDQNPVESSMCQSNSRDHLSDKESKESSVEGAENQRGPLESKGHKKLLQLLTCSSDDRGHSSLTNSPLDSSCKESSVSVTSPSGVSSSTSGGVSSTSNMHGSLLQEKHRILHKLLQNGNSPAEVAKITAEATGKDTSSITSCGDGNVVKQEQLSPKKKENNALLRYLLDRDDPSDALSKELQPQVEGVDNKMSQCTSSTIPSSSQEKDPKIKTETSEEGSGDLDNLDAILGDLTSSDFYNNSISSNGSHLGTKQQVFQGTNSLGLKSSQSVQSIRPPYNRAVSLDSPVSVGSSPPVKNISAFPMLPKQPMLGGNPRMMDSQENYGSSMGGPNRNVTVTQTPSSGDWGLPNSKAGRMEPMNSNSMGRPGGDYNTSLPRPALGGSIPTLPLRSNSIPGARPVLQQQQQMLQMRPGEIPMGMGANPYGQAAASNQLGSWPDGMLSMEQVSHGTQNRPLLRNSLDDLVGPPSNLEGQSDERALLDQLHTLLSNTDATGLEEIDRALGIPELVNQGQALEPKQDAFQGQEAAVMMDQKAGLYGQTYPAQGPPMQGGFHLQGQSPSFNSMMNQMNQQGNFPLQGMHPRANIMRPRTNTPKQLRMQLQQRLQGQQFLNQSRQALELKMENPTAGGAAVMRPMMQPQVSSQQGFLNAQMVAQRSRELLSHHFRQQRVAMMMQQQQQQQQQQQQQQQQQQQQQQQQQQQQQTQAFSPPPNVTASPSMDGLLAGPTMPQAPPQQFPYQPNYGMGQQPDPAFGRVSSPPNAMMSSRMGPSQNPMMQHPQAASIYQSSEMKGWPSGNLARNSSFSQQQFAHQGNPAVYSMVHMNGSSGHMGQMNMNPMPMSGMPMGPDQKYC
- Assay Summary: TR-FRET dose response biochemical High Throughput Screening assay for agonists of the steroid receptor coactivator 3 (SRC-3) recruitment by the peroxisome proliferator-activated receptor gamma (PPAR gamma): non-selective agonists. [Related pubchem assays: 1301 (Confirmation screen.), 1048 (Primary screen.)]
- Format: functional
Measured Parameter: EC50

[[record]]
smiles_text = "Cc1c(Cl)c(-c2nnc(S)n2-c2ccc(F)cc2)nn1C"
val = "> 79.4 µM (not active)"

[[record]]
smiles_text = "Cn1c(=S)[nH]c2c(c1=O)C(C)(C)Cc1ccccc1-2"
val = "> 79.4 µM (not active)"

[[record]]
smiles_text = "Cc1cc2cc(CNS(=O)(=O)c3ccc4ccccc4c3)ccc2n1C"
val = "14.4 µM (not active)"

[[record]]
smiles_text = "CCn1c2c(c3cc(Br)ccc31)CCC/C2=N\\O"
val = "> 79.4 µM (not active)"


----------
- Measured Target: Apoptotic protease-activating factor 1 (Homo sapiens, UniProt O14727)
- Sequence (O14727 whole entry): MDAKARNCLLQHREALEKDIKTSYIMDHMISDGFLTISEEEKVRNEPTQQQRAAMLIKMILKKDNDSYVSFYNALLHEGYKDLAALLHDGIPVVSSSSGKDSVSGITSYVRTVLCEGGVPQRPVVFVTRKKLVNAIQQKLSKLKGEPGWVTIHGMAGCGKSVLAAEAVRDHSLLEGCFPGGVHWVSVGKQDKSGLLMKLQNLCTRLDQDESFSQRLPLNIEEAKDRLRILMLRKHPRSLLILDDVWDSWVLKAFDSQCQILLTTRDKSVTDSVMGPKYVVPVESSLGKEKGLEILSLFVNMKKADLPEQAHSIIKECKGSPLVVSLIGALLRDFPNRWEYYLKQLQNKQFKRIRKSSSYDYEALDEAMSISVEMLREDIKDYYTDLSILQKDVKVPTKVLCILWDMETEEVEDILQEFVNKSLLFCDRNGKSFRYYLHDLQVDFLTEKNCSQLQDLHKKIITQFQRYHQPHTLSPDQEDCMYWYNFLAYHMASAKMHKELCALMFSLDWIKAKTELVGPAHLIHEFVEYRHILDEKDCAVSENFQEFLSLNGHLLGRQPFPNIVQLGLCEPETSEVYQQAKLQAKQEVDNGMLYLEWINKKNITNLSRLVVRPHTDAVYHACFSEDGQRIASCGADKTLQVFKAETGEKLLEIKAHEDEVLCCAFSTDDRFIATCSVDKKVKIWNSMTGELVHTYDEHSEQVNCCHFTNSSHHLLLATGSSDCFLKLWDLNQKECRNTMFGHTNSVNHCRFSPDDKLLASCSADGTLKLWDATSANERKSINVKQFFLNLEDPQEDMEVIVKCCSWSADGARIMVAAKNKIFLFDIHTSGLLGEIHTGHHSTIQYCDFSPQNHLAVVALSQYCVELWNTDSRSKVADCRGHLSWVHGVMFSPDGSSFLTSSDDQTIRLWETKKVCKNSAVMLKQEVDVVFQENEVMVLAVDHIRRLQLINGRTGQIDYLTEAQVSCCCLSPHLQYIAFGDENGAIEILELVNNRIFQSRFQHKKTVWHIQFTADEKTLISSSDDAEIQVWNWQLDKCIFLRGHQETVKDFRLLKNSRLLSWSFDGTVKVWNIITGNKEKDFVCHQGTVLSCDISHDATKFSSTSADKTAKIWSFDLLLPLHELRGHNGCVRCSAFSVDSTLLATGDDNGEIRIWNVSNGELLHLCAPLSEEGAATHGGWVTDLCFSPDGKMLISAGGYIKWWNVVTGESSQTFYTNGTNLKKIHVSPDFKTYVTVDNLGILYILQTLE
- Type: functional
Active and inactive are the calls of the source.
Possible outcomes: 1 (active), 0 (inactive)

[[record]]
smiles_text = "CCOc1ccc2nc3cc(NCc4ccc(OC)cc4)ccc3c(N)c2c1"
category = 1

[[record]]
smiles_text = "Cc1ccc(-c2nn3c(C)nnc3c3ccccc23)cc1S(=O)(=O)NCc1ccco1"
category = 1

[[record]]
smiles_text = "Nc1nnc2c(n1)CCCC2"
category = 1

[[record]]
smiles_text = "CCCN(CC(=O)Nc1ccccc1OC)C(=O)CSc1ccc(Br)cc1C"
category = 1

[[record]]
smiles_text = "COc1ccccc1OCCNC(=O)c1cccc(S(=O)(=O)N2CCN(Cc3ccccc3)CC2)c1"
category = 0

[[record]]
smiles_text = "O=C(Cc1ccccc1Cl)NC1(O)C(=O)c2ccccc2C1=O"
category = 1

[[record]]
smiles_text = "COC(=O)C1=C(C)N(Cc2ccccc2)C(NCCc2c[nH]c3ccccc23)=N[C@H]1c1cccc(C(F)(F)F)c1"
category = 1

[[record]]
smiles_text = "CCN1C(=O)c2cccc3c(N)ccc1c23"
category = 1

[[record]]
smiles_text = "CN(C)c1cc(N/N=C/c2ccccc2C(F)(F)F)nc(N(C)C)n1"
category = 1


Provenance of the data: ChEMBL document CHEMBL1201862
